Data credit: patent US20110076293A1

tested on: Jurkat human T lymphocyte cell line; assay: Apoptosis assay (Annexin V) of compounds incubated with human serum; conditions: incubation time in human serum 48 hours
value kind: Conversion, as relative ED50 compared to triptolide (%)

compound	unit name	result value
CC(C)[C@]12O[C@H]1[C@@H]1O[C@]13[C@]1(O[C@H]1C[C@H]1C4=C(CC[C@@]13C)C(=O)OC4)[C@@H]2OC(=O)Oc1ccccc1 [PG676, Triptolide 14-Phenyl Carbonate]	%	96
CC(C)[C@]12O[C@H]1[C@@H]1O[C@]13[C@]1(O[C@H]1C[C@H]1C4=C(CC[C@@]13C)C(=O)OC4)[C@@H]2OC(=O)OCC(=O)O [PG687tris]	%	6
CC(C)[C@]12O[C@H]1[C@@H]1O[C@]13[C@]1(O[C@H]1C[C@H]1C4=C(CC[C@@]13C)C(=O)OC4)[C@@H]2OC(=O)OCCN(C)C	%	146
COC(=O)COC(=O)O[C@@H]1[C@@]2(C(C)C)O[C@H]2[C@@H]2O[C@]23[C@]12O[C@H]2C[C@H]1C2=C(CC[C@@]13C)C(=O)OC2	%	85
CC(C)[C@]12O[C@H]1[C@@H]1O[C@]13[C@]1(O[C@H]1C[C@H]1C4=C(CC[C@@]13C)C(=O)OC4)[C@@H]2OC(=O)OCC(=O)O [PG687]	%	6

###

system: Jurkat human T lymphocyte cell line; test: Apoptosis assay (Annexin V) of compounds incubated with human serum; conditions: Table 4; serum, 48 hr; 10000 nM
value kind: % apoptotic cells at given concentration (nM) (%)

molecule	result value
CC(C)[C@]12O[C@H]1[C@@H]1O[C@]13[C@]1(O[C@H]1C[C@H]1C4=C(CC[C@@]13C)C(=O)OC4)[C@@H]2O [PG490, Triptolide]	94.2
CC(C)[C@]12O[C@H]1[C@@H]1O[C@]13[C@]1(O[C@H]1C[C@H]1C4=C(CC[C@@]13C)C(=O)OC4)[C@@H]2OC(=O)CCC(N)C(=O)O (stereo partly drawn) [PG661, 14-isoglutamyl ester, reference compound]	5.2
CC(C)[C@]12O[C@H]1[C@@H]1O[C@]13[C@]1(O[C@H]1C[C@H]1C4=C(CC[C@@]13C)C(=O)OC4)[C@@H]2OC(=O)Nc1ccccc1 [PG671, Triptolide 14-Phenyl Carbamate]	15.4
CC(C)[C@]12O[C@H]1[C@@H]1O[C@]13[C@]1(O[C@H]1C[C@H]1C4=C(CC[C@@]13C)C(=O)OC4)[C@@H]2OC(=O)CCC(=O)O [PG490-88, triptolide-14-succinate, reference compound]	93.9
CC(C)[C@]12O[C@H]1[C@@H]1O[C@]13[C@]1(O[C@H]1C[C@H]1C4=C(CC[C@@]13C)C(=O)OC4)[C@@H]2OC(=O)N1CCN(C)CC1 [PG672, N-methylpiperazinecarbonyl (carbamate)]	63.2
CCNC(=O)O[C@@H]1[C@@]2(C(C)C)O[C@H]2[C@@H]2O[C@]23[C@]12O[C@H]2C[C@H]1C2=C(CC[C@@]13C)C(=O)OC2 [PG666, Triptolide 14-Ethyl Carbamate]	92.3

###

tested on: Jurkat human T lymphocyte cell line; test: Apoptosis assay (Annexin V) of compounds incubated with human serum; conditions: Table 4; serum, 48 hr; 3000 nM
Field 'label' (enum: true / false). Set to true when % apoptotic cells at given concentration (nM) is strictly under 40%; else false.

compound	answer label
CC(C)[C@]12O[C@H]1[C@@H]1O[C@]13[C@]1(O[C@H]1C[C@H]1C4=C(CC[C@@]13C)C(=O)OC4)[C@@H]2OC(=O)CCC(=O)O [PG490-88, triptolide-14-succinate, reference compound]	false
CCNC(=O)O[C@@H]1[C@@]2(C(C)C)O[C@H]2[C@@H]2O[C@]23[C@]12O[C@H]2C[C@H]1C2=C(CC[C@@]13C)C(=O)OC2 [PG666, Triptolide 14-Ethyl Carbamate]	false
CC(C)[C@]12O[C@H]1[C@@H]1O[C@]13[C@]1(O[C@H]1C[C@H]1C4=C(CC[C@@]13C)C(=O)OC4)[C@@H]2OC(=O)N1CCN(C)CC1 [PG672, N-methylpiperazinecarbonyl (carbamate)]	false
CC(C)[C@]12O[C@H]1[C@@H]1O[C@]13[C@]1(O[C@H]1C[C@H]1C4=C(CC[C@@]13C)C(=O)OC4)[C@@H]2OC(=O)CCC(N)C(=O)O (stereo partly drawn) [PG661, 14-isoglutamyl ester, reference compound]	true
CC(C)[C@]12O[C@H]1[C@@H]1O[C@]13[C@]1(O[C@H]1C[C@H]1C4=C(CC[C@@]13C)C(=O)OC4)[C@@H]2O [PG490, Triptolide]	false
CC(C)[C@]12O[C@H]1[C@@H]1O[C@]13[C@]1(O[C@H]1C[C@H]1C4=C(CC[C@@]13C)C(=O)OC4)[C@@H]2OC(=O)Nc1ccccc1 [PG671, Triptolide 14-Phenyl Carbamate]	false

###

test system: IL-2 production in Jurkat human T lymphocyte cells; assay: IL-2 production assay for activity of compounds incubated with human serum; details: Table 7; Jurkat cells (48 hrs); 0.001 nM
value kind: IL-2 pg/mL at given concentration (nM)

compound	result value
CC(C)[C@]12O[C@H]1[C@@H]1O[C@]13[C@]1(O[C@H]1C[C@H]1C4=C(CC[C@@]13C)C(=O)OC4)[C@@H]2OC(=O)CCC(=O)O [PG490-88, triptolide-14-succinate, reference compound]	776.4 pg/mL
CC(C)[C@]12O[C@H]1[C@@H]1O[C@]13[C@]1(O[C@H]1C[C@H]1C4=C(CC[C@@]13C)C(=O)OC4)[C@@H]2OC(=O)NCCN(C)C [PG688]	883.9 pg/mL
CCNC(=O)O[C@@H]1[C@@]2(C(C)C)O[C@H]2[C@@H]2O[C@]23[C@]12O[C@H]2C[C@H]1C2=C(CC[C@@]13C)C(=O)OC2 [PG666, Triptolide 14-Ethyl Carbamate]	844.6 pg/mL
CC(C)[C@]12O[C@H]1[C@@H]1O[C@]13[C@]1(O[C@H]1C[C@H]1C4=C(CC[C@@]13C)C(=O)OC4)[C@@H]2O [PG490, Triptolide]	929.7 pg/mL

###

test system: IL-2 production in Jurkat human T lymphocyte cells; experiment: IL-2 production assay for activity of compounds incubated with human serum; conditions: Table 8; Jurkat cells; 0.1 nM
IL-2 pg/mL at given concentration (nM): recorded values
value kind: IL-2 pg/mL at given concentration (nM) (pg/mL)

compound	target or system	result value
CC(C)[C@]12O[C@H]1[C@@H]1O[C@]13[C@]1(O[C@H]1C[C@H]1C4=C(CC[C@@]13C)C(=O)OC4)[C@@H]2OC(=O)CCC(=O)O [PG490-88, triptolide-14-succinate, reference compound]	IL-2 production in Jurkat human T lymphocyte cells	86.3
CC(C)[C@]12O[C@H]1[C@@H]1O[C@]13[C@]1(O[C@H]1C[C@H]1C4=C(CC[C@@]13C)C(=O)OC4)[C@@H]2O [PG490, Triptolide]	IL-2 production in Jurkat human T lymphocyte cells	87.1
CCNC(=O)O[C@@H]1[C@@]2(C(C)C)O[C@H]2[C@@H]2O[C@]23[C@]12O[C@H]2C[C@H]1C2=C(CC[C@@]13C)C(=O)OC2 [PG666, Triptolide 14-Ethyl Carbamate]	IL-2 production in Jurkat human T lymphocyte cells	92.8

###

tested on: IL-2 production in Jurkat human T lymphocyte cells; assay: IL-2 production assay for activity of compounds incubated with human serum; details: Table 8; Jurkat cells; 0.0001 nM
IL-2 pg/mL at given concentration (nM): recorded values
value kind: IL-2 pg/mL at given concentration (nM) (pg/mL)

compound	value kind	result value
CC(C)[C@]12O[C@H]1[C@@H]1O[C@]13[C@]1(O[C@H]1C[C@H]1C4=C(CC[C@@]13C)C(=O)OC4)[C@@H]2O [PG490, Triptolide]	IL-2 pg/mL at given concentration (nM)	80.0
CCNC(=O)O[C@@H]1[C@@]2(C(C)C)O[C@H]2[C@@H]2O[C@]23[C@]12O[C@H]2C[C@H]1C2=C(CC[C@@]13C)C(=O)OC2 [PG666, Triptolide 14-Ethyl Carbamate]	IL-2 pg/mL at given concentration (nM)	94.3
CC(C)[C@]12O[C@H]1[C@@H]1O[C@]13[C@]1(O[C@H]1C[C@H]1C4=C(CC[C@@]13C)C(=O)OC4)[C@@H]2OC(=O)CCC(N)C(=O)O (stereo partly drawn) [PG661, 14-isoglutamyl ester, reference compound]	IL-2 pg/mL at given concentration (nM)	82.0
CC(C)[C@]12O[C@H]1[C@@H]1O[C@]13[C@]1(O[C@H]1C[C@H]1C4=C(CC[C@@]13C)C(=O)OC4)[C@@H]2OC(=O)CCC(=O)O [PG490-88, triptolide-14-succinate, reference compound]	IL-2 pg/mL at given concentration (nM)	96.1
CC(C)[C@]12O[C@H]1[C@@H]1O[C@]13[C@]1(O[C@H]1C[C@H]1C4=C(CC[C@@]13C)C(=O)OC4)[C@@H]2OC(=O)Nc1ccccc1 [PG671, Triptolide 14-Phenyl Carbamate]	IL-2 pg/mL at given concentration (nM)	96.4
CC(C)[C@]12O[C@H]1[C@@H]1O[C@]13[C@]1(O[C@H]1C[C@H]1C4=C(CC[C@@]13C)C(=O)OC4)[C@@H]2OC(=O)N1CCN(C)CC1 [PG672, N-methylpiperazinecarbonyl (carbamate)]	IL-2 pg/mL at given concentration (nM)	103.3
